# Experimental System: CRTH2 (Homo sapiens, UniProt Q9Y5Y4)
# Sequence (Q9Y5Y4 1-395): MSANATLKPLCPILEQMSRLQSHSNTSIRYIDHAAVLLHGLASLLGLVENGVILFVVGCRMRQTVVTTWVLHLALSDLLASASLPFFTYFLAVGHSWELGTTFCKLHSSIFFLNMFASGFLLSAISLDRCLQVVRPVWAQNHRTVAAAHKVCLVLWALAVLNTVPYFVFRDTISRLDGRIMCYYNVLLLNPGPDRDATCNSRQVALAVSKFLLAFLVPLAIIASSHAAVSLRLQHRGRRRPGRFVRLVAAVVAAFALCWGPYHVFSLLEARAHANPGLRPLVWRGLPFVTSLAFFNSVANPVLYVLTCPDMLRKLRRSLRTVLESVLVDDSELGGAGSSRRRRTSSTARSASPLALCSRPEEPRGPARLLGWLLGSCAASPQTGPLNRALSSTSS
# Method Summary: FRET based competitive immunoassay (cAMP) in CRTH2 expressing CHO cells
# Measurement Context: CRTH2 expressing CHO cells incubated with forskolin and PGD2; Eu3+ cryptate-labeled anti-cAMP and d2-labeled cAMP
The compounds listed here are annotated with their IC50.
Write down the numeric answer in nM and omit the unit.

Cc1c(-c2cn(CCc3ccccc3)c(=O)c3c2CCCC3)c2cc(F)ccc2n1CC(=O)O [Example 93]: 21

Continue with the next compound.
Need IC50, item Cc1c(-c2nn(Cc3ccc(OC(F)(F)F)cc3)c(=O)c3ccccc23)c2ccccc2n1CC(=O)O [Example 170]
25
